Cited source: paper PMC5750218

- Tested on: Vancomycin-resistant (VanA) Enterococcus faecium ATCC 51559
- PROCEDURE_DETAILS: microbe, parasite or virus in culture
- ASSAY_CONDITIONS: Enterococcus faecium, ATCC51559 / VRE, read-out: MIC VRE
RECORDED_ENDPOINT: MIC (µg/mL)
Write down the numeric answer in µg/mL and omit the unit.

Task: API: value(readout= MIC, system= Vancomycin-resistant (VanA) Enterococcus faecium ATCC 51559, query= CN[C@H](CC(C)C)C(=O)N[C@H]1C(=O)N[C@@H](CC(N)=O)C(=O)N[C@H]2C(=O)N[C@H]3C(=O)N[C@H](C(=O)N[C@H](C(=O)O)c4cc(O)cc(O)c4-c4cc3ccc4O)[C@H](O[C@H]3C[C@](C)(N)[C@@H](O)[C@H](C)O3)c3ccc(c(Cl)c3)Oc3cc2cc(c3O[C@@H]2O[C@H](CO)[C@@H](O)[C@H](O)[C@H]2O[C@H]2C[C@](C)(NCc3ccc(-c4ccc(Cl)cc4)cc3)[C@@H](O)[C@H](C)O2)Oc2ccc(cc2Cl)[C@H]1O [Compound 5, Oritavancin, reference compound] )
Result: 0.125

Task: API: value(readout= MIC, system= Vancomycin-resistant (VanA) Enterococcus faecium ATCC 51559, query= CCCCCCCCCC(=O)N[C@@H](Cc1c[nH]c2ccccc12)C(=O)N[C@H](CC(N)=O)C(=O)N[C@@H](CC(=O)O)C(=O)N[C@@H]1C(=O)NCC(=O)N[C@@H](CCCN)C(=O)N[C@@H](CC(=O)O)C(=O)N[C@H](C)C(=O)N[C@@H](CC(=O)O)C(=O)NCC(=O)N[C@H](CO)C(=O)N[C@@H]([C@H](C)CC(=O)O)C(=O)N[C@@H](CC(=O)c2ccccc2N)C(=O)O[C@@H]1C [Compound 4, Daptomycin] )
Result: 16

Task: API: value(readout= MIC, system= Vancomycin-resistant (VanA) Enterococcus faecium ATCC 51559, query= CCCCCCCCCCNCCN[C@@]1(C)C[C@H](O[C@H]2[C@H](Oc3c4cc5cc3Oc3ccc(cc3Cl)[C@@H](O)[C@@H](NC(=O)[C@@H](CC(C)C)NC)C(=O)N[C@@H](CC(N)=O)C(=O)N[C@H]5C(=O)N[C@H]3C(=O)N[C@H](C(=O)N[C@H](C(=O)O)c5cc(O)c(CNCP(=O)(O)O)c(O)c5-c5cc3ccc5O)[C@H](O)c3ccc(c(Cl)c3)O4)O[C@H](CO)[C@@H](O)[C@@H]2O)O[C@@H](C)[C@H]1O [Compound 2, Telavancin] )
Result: 2

====

- Tested on: Multi-drug-resistant S. pneumoniae ATCC 700677
- PROCEDURE_DETAILS: microbe, parasite or virus in culture
- ASSAY_CONDITIONS: ATCC 700677
- Description: Antimicrobial activity of compounds was tested against a number of bacterial strains by broth microdilution (BMD) assay with MIC determination, including S. aureus (MSSA ATCC® 29213™, MRSA ATCC® 43300™, VISA NARSA NRS1, VISA NARSA NRS4), Streptococcus pneumoniae (MDR ATCC® 700677™) and Enterococcus faecium (MDR VanA ATCC® 51559™). […]
RECORDED_ENDPOINT: MIC MDR S.P. (µg/mL)
Write down the numeric answer in µg/mL and omit the unit.

Task: Recorded MIC MDR S.P. of CCCCCCCCCCC(=O)N[C@@H](CCCCNC(=O)[C@H]1NC(=O)[C@H]2NC(=O)[C@H](NC(=O)[C@@H]3NC(=O)[C@H](CC(N)=O)NC(=O)[C@H](NC(=O)[C@@H](CC(C)C)NC)[C@H](O)c4ccc(c(Cl)c4)Oc4cc3cc(c4O[C@@H]3O[C@H](CO)[C@@H](O)[C@H](O)[C@H]3O[C@H]3C[C@](C)(N)[C@H](O)[C@H](C)O3)Oc3ccc(cc3Cl)[C@H]2O)c2ccc(O)c(c2)-c2c(O)cc(O)cc21)C(=O)O [Compound 20, nC10CO-K(Vancomycin)-OH] , please.
Result: 0.19

====

- PROCEDURE_DETAILS: In vivo pharmacokinetics in mice
- ASSAY_CONDITIONS: mouse, SC 10 mg kg-1
RECORDED_ENDPOINT: Tlast (h)
Write down the numeric answer in h and omit the unit.

Task: Recorded Tlast of CCCCCCCCCCC(=O)N[C@@H](CCCCN)C(=O)N[C@@H](CCCCN)C(=O)N[C@@H](CCCCNC(=O)[C@H]1NC(=O)[C@H]2NC(=O)[C@H](NC(=O)[C@@H]3NC(=O)[C@H](CC(N)=O)NC(=O)[C@H](NC(=O)[C@@H](CC(C)C)NC)[C@H](O)c4ccc(c(Cl)c4)Oc4cc3cc(c4O[C@@H]3O[C@H](CO)[C@@H](O)[C@H](O)[C@H]3O[C@H]3C[C@](C)(N)[C@H](O)[C@H](C)O3)Oc3ccc(cc3Cl)[C@H]2O)c2ccc(O)c(c2)-c2c(O)cc(O)cc21)C(N)=O [Compound 21, nC10CO-KK-K(Vancomycin)-NH2] , please.
Result: 24

====

So I've got a bunch of compounds here, and I need their hemolysis at 3 h values.
- PROCEDURE_DETAILS: Haemolysis assay
- Type: cell-based
- ASSAY_CONDITIONS: human, whole blood, 1600 µg mL-1
Write down the numeric answer in % and omit the unit.

Task: Recorded hemolysis at 3 h of CCCCCCCCCCC(=O)N[C@@H](CCCCN)C(=O)N[C@@H](CCCCN)C(=O)N[C@@H](CCCCN)C(=O)N[C@@H](CCCCNC(=O)[C@H]1NC(=O)[C@H]2NC(=O)[C@H](NC(=O)[C@@H]3NC(=O)[C@H](CC(N)=O)NC(=O)[C@H](NC(=O)[C@@H](CC(C)C)NC)[C@H](O)c4ccc(c(Cl)c4)Oc4cc3cc(c4O[C@@H]3O[C@H](CO)[C@@H](O)[C@H](O)[C@H]3O[C@H]3C[C@](C)(N)[C@H](O)[C@H](C)O3)Oc3ccc(cc3Cl)[C@H]2O)c2ccc(O)c(c2)-c2c(O)cc(O)cc21)C(=O)O [Compound 18, nC10CO-KKK-K(Vancomycin)-OH] , please.
Result: 1.2

Task: Recorded hemolysis at 3 h of CCCCCCCCCCC(=O)N[C@@H](CCCCN)C(=O)N[C@@H](CCCCN)C(=O)N[C@@H](CCCCNC(=O)[C@H]1NC(=O)[C@H]2NC(=O)[C@H](NC(=O)[C@@H]3NC(=O)[C@H](CC(N)=O)NC(=O)[C@H](NC(=O)[C@@H](CC(C)C)NC)[C@H](O)c4ccc(c(Cl)c4)Oc4cc3cc(c4O[C@@H]3O[C@H](CO)[C@@H](O)[C@H](O)[C@H]3O[C@H]3C[C@](C)(N)[C@H](O)[C@H](C)O3)Oc3ccc(cc3Cl)[C@H]2O)c2ccc(O)c(c2)-c2c(O)cc(O)cc21)C(=O)NC [Compound 22, nC10CO-KK-K(Vancomycin)-NHMe] , please.
Result: 2.7

Task: Recorded hemolysis at 3 h of CCCCCCCCCCC(=O)N[C@@H](CCCCN)C(=O)N[C@@H](CCCCN)C(=O)N[C@@H](CCCCNC(=O)[C@H]1NC(=O)[C@H]2NC(=O)[C@H](NC(=O)[C@@H]3NC(=O)[C@H](CC(N)=O)NC(=O)[C@H](NC(=O)[C@@H](CC(C)C)NC)[C@H](O)c4ccc(c(Cl)c4)Oc4cc3cc(c4O[C@@H]3O[C@H](CO)[C@@H](O)[C@H](O)[C@H]3O[C@H]3C[C@](C)(N)[C@H](O)[C@H](C)O3)Oc3ccc(cc3Cl)[C@H]2O)c2ccc(O)c(c2)-c2c(O)cc(O)cc21)C(=O)O [Compound 19, nC10CO-KK-K(Vancomycin)-OH] , please.
Result: 0.5

Task: Recorded hemolysis at 3 h of CCCCCCCCCCCCCC(=O)NCC(=O)N[C@@H](CO)C(=O)N[C@@H](CCCCN)C(=O)N[C@@H](CCCCN)C(=O)N[C@@H](CCCCN)C(=O)N[C@@H](CSSCCNC(=O)[C@H]1NC(=O)[C@H]2NC(=O)[C@H](NC(=O)[C@@H]3NC(=O)[C@H](CC(N)=O)NC(=O)[C@H](NC(=O)[C@@H](CC(C)C)NC)[C@H](O)c4ccc(c(Cl)c4)Oc4cc3cc(c4O[C@@H]3O[C@H](CO)[C@@H](O)[C@H](O)[C@H]3O[C@H]3C[C@](C)(N)[C@H](O)[C@H](C)O3)Oc3ccc(cc3Cl)[C@H]2O)c2ccc(O)c(c2)-c2c(O)cc(O)cc21)C(=O)O [Compound 14] , please.
Result: 6.4

====

- PROCEDURE_DETAILS: in vitro
- ASSAY_CONDITIONS: human, 50% human plasma (pooled, sodium heparin) in PBS, pH 7.4
So I've got a bunch of compounds here, and I need their remaining at 6 h, 20 µM values.
Write down the numeric answer in % and omit the unit.

Task: Recorded remaining at 6 h, 20 µM of `CCCCCCCCCCCCCC(=O)NCC(=O)N[C@@H](CO)C(=O)N[C@@H](CCCCN)C(=O)N[C@@H](CCCCN)C(=O)N[C@@H](CCCCN)C(=O)N[C@@H](CSSCCNC(=O)[C@H]1NC(=O)[C@H]2NC(=O)[C@H](NC(=O)[C@@H]3NC(=O)[C@H](CC(N)=O)NC(=O)[C@H](NC(=O)[C@@H](CC(C)C)NC)[C@H](O)c4ccc(c(Cl)c4)Oc4cc3cc(c4O[C@@H]3O[C@H](CO)[C@@H](O)[C@H](O)[C@H]3O[C@H]3C[C@](C)(N)[C@H](O)[C@H](C)O3)Oc3ccc(cc3Cl)[C@H]2O)c2ccc(O)c(c2)-c2c(O)cc(O)cc21)C(=O)O` , please.
Result: 82

Task: Recorded remaining at 6 h, 20 µM of CCCCCCCCCCC(=O)N[C@@H](CCCCNC(=O)[C@H]1NC(=O)[C@H]2NC(=O)[C@H](NC(=O)[C@@H]3NC(=O)[C@H](CC(N)=O)NC(=O)[C@H](NC(=O)[C@@H](CC(C)C)NC)[C@H](O)c4ccc(c(Cl)c4)Oc4cc3cc(c4O[C@@H]3O[C@H](CO)[C@@H](O)[C@H](O)[C@H]3O[C@H]3C[C@](C)(N)[C@H](O)[C@H](C)O3)Oc3ccc(cc3Cl)[C@H]2O)c2ccc(O)c(c2)-c2c(O)cc(O)cc21)C(=O)O [Compound 20, nC10CO-K(Vancomycin)-OH] , please.
Result: 100

Task: Recorded remaining at 6 h, 20 µM of CCCCCCCCCCC(=O)N[C@@H](CCCCN)C(=O)N[C@@H](CCCCN)C(=O)N[C@@H](CCCCN)C(=O)N[C@@H](CCCCNC(=O)[C@H]1NC(=O)[C@H]2NC(=O)[C@H](NC(=O)[C@@H]3NC(=O)[C@H](CC(N)=O)NC(=O)[C@H](NC(=O)[C@@H](CC(C)C)NC)[C@H](O)c4ccc(c(Cl)c4)Oc4cc3cc(c4O[C@@H]3O[C@H](CO)[C@@H](O)[C@H](O)[C@H]3O[C@H]3C[C@](C)(N)[C@H](O)[C@H](C)O3)Oc3ccc(cc3Cl)[C@H]2O)c2ccc(O)c(c2)-c2c(O)cc(O)cc21)C(=O)O [Compound 18, nC10CO-KKK-K(Vancomycin)-OH] , please.
Result: 83
